- measured on: T1, ectodomain of human TfR1 (His10-hTfR1; SEQ ID NO:110) (human, UniProt P02786 89-760)
- T1 construct: also called ectodomain of hTfR1
- assay name: BLI: His-tagged Fab loaded from cell supernatant on anti-Fab sensors, hTfR1 ectodomain at 3.75 µg/ml in solution, 300 s association, 300 s dissociation
- Method: The generated alanine variants were expressed as single mutant, His-tagged Fabs by transient transfection of Chinese hamster ovary cells (ExpiCHO; Thermo Fisher Scientific) according to the manufacturer's instructions. […] Thereafter, association of ectodomain of hTfR1 (SEQ ID NO:110), diluted to 3.75 μg/ml in 1× Kinetics buffer (ForteBio), to the loaded sensors was measured for 300 s, followed by dissociation for 300 s.

binder: h26D3 variant HC1 Fab (Fab, V domains shown, Single-mutant His-tagged Fab; also called D31A) VH: EVQLVQSGAEVKKPGSSVKVSCKASGYIFTAYNMDWVRQAPGQGLEWIGDINPDYDTTSYNEKFKGRATLTVDKSTSTAYMELSSLRSEDTAVYYCARGGYSGSSYYHPMDYWGQGTLVTVSS VL: DIQMTQSPSSVSASVGDRVTITCKSSQSLLYSTNQKNYLAWYQQKPGKAPKLLIYWASTRESGVPSRFSGSGSGTDFTLTISSLQPEDFATYYCQQYFIYPRTFGQGTKVEIK
binding result: binds
//
binder: h26D3 variant HC12 Fab (Fab, V domains shown, Single-mutant His-tagged Fab; also called D111A) VH: EVQLVQSGAEVKKPGSSVKVSCKASGYIFTDYNMDWVRQAPGQGLEWIGDINPDYDTTSYNEKFKGRATLTVDKSTSTAYMELSSLRSEDTAVYYCARGGYSGSSYYHPMAYWGQGTLVTVSS VL: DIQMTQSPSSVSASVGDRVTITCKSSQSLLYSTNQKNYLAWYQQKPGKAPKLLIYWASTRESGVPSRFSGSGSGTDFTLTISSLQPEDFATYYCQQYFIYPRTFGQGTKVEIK
binding result: binds
